target: recombinant human SAE enzyme (Homo sapiens (Human), UniProt Q9UBT2); assay: SAE HTRF enzyme assay; type: biochemical; conditions: Concentration 0.111 μM; read-out: Percent Inhibition
Sequence (Q9UBT2 whole entry): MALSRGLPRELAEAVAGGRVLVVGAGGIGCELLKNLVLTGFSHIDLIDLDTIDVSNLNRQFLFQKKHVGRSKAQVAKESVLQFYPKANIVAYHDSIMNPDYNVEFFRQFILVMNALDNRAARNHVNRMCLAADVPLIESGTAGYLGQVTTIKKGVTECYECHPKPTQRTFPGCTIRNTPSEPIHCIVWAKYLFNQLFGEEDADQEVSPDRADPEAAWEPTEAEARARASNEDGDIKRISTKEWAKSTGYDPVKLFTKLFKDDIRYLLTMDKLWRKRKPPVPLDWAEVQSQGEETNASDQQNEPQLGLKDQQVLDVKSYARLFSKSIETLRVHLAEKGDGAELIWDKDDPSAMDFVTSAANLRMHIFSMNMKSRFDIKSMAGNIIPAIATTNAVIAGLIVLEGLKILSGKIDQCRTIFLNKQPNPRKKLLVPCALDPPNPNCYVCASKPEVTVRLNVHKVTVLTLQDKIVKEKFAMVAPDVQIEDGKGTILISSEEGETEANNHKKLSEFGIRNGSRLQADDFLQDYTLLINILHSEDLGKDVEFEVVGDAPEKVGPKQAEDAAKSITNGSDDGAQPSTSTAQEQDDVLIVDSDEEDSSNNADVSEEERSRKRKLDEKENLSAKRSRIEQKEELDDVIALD
Sequence (Q9UBE0 whole entry partner): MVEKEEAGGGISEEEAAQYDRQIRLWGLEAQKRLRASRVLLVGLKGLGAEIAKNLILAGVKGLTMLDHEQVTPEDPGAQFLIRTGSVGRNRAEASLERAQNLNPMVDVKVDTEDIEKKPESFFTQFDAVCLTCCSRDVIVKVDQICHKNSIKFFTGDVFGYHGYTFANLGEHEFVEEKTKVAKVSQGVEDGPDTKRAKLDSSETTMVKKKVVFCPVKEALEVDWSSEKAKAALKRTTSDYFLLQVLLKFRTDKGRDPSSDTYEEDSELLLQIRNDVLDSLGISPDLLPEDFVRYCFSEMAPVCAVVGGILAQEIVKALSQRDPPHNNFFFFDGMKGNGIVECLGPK
ATTRIBUTE_MEASURED: inhibition at 0.111 µM (%)
# number only, unit % dropped from output

Observe how each entry below is paired with its result.
NS(=O)(=O)OC[C@H]1C[C@@H](Nc2ncncc2C(=O)c2ccc(-c3ccccc3Cl)o2)[C@H](O)[C@@H]1O [I-158] | 86
NS(=O)(=O)OC[C@H]1C[C@@H](Nc2ncncc2C(=O)c2cc(Cc3cccc(Cl)c3)c(CO)s2)C[C@@H]1O [I-35] | 98
NS(=O)(=O)OC[C@H]1C[C@@H](Nc2ncncc2C(=O)c2cc(CSc3ccccc3)cs2)C[C@@H]1O [I-177] | 85

Now, please, on to the next compound.
// returns reported inhibition at 0.111 µM for input NS(=O)(=O)OC[C@H]1C[C@@H](Nc2ncncc2C(=O)c2cc(Cc3cccc(Cl)n3)cs2)C[C@@H]1O [I-71]
98

* * *

target: recombinant human SAE enzyme (Homo sapiens (Human), UniProt Q9UBT2); test: SAE HTRF enzyme assay; format: biochemical; details: Concentration 0.111 μM
Listed below: Percent Inhibition values for each entry.
Lab note: jot the number down without any unit.

Answered cases to consult:
NS(=O)(=O)OC[C@H]1C[C@@H](Nc2ncncc2C(=O)c2cc([C@H]3NCCc4ccccc43)c(Cl)s2)C[C@@H]1O (single isomer, unassigned) [I-279b] | 84
NS(=O)(=O)OC[C@H]1C[C@@H](Nc2ncncc2C(=O)c2cc(C3(c4cccc(Cl)c4)CCCO3)cs2)C[C@@H]1O (single isomer, unassigned) [I-20a] | 81
NS(=O)(=O)OC[C@H]1C[C@@H](Nc2ncncc2C(=O)c2cc([C@H](O)c3cc(Br)ccc3F)cs2)C[C@@H]1O (single isomer, unassigned) [I-19b] | 99
NS(=O)(=O)OC[C@H]1C[C@@H](Nc2ncncc2C(=O)c2cc(Cc3cccc(Cl)c3)c([C@@H]3CCCO3)s2)C[C@@H]1O (single isomer, unassigned) [I-41b] | 98

Now consider the entry below.
Please look up its Percent Inhibition: NS(=O)(=O)OC[C@H]1C[C@@H](Nc2ncncc2C(=O)c2cc([C@@H]3OCCc4ccccc43)cs2)C[C@@H]1O (single isomer, unassigned) [I-254a]
81

* * *

target: recombinant human SAE enzyme (Homo sapiens (Human)); experiment: SAE HTRF enzyme assay; assay type: biochemical; details: Concentration 0.111 μM; read-out: Percent Inhibition
inhibition at 0.111 µM below 90% gives FALSE; inhibition at 0.111 µM at or above it gives TRUE.

Please indicate if the recorded inhibition at 0.111 µM for NS(=O)(=O)OC[C@H]1C[C@@H](Nc2ncncc2C(=O)c2cc(Cc3cccc(Br)c3)c(Cl)s2)C[C@@H]1O [I-112] meets or exceeds 90%.
TRUE

Determine whether this compound has inhibition at 0.111 µM no lower than 90%: Cc1cnn(Cc2cc(C(=O)c3cncnc3N[C@@H]3C[C@H](COS(N)(=O)=O)[C@@H](O)C3)sc2C)c1 [I-78]
TRUE

Item NS(=O)(=O)OC[C@H]1C[C@@H](Nc2ncncc2C(=O)c2cc(CC3CCCCC3)cs2)C[C@@H]1O [I-199] with inhibition at 0.111 µM of 90% or above?
FALSE

Please check the record COc1ccccc1CCc1csc(C(=O)c2cncnc2N[C@@H]2C[C@H](COS(N)(=O)=O)[C@@H](O)C2)c1 [I-183] and state if its inhibition at 0.111 µM is at or above 90%.
FALSE

Kindly determine if inhibition at 0.111 µM recorded for NS(=O)(=O)OC[C@H]1C[C@@H](Nc2ncncc2C(=O)c2cc(Cc3ccccc3)c(Cc3ccccc3)o2)C[C@@H]1O [I-139] is above or exactly 90%.
TRUE

For this compound, is measured inhibition at 0.111 µM 90% or higher? C=C(c1cccc(Cl)c1)c1cc(C(=O)c2cncnc2N[C@@H]2C[C@H](COS(N)(=O)=O)[C@@H](O)C2)sc1C [I-100]
TRUE

Evaluate Cc1sc(C(=O)c2cncnc2N[C@@H]2C[C@H](COS(N)(=O)=O)[C@@H](O)C2)cc1Sc1cccc(Cl)c1 [I-143] : inhibition at 0.111 µM at minimum 90%?
TRUE

Please indicate if the recorded inhibition at 0.111 µM for NS(=O)(=O)OC[C@H]1C[C@@H](Nc2ncncc2C(=O)c2ccc(CO)o2)C[C@@H]1O [I-206] meets or exceeds 90%.
FALSE

Say whether Cc1ccc2ccn(Cc3csc(C(=O)c4cncnc4N[C@@H]4C[C@H](COS(N)(=O)=O)[C@@H](O)C4)c3)c2c1 [I-132] shows inhibition at 0.111 µM of 90% or more.
TRUE

# bool: inhibition at 0.111 µM of NS(=O)(=O)OC[C@H]1C[C@@H](Nc2ncncc2C(=O)c2cc(COc3cccc(Cl)c3)cs2)C[C@@H]1O [I-120] >= 90%
TRUE

Decide: inhibition at 0.111 µM of NS(=O)(=O)OC[C@H]1C[C@@H](Nc2ncncc2C(=O)c2cc(Cc3ccccc3)c(Cc3ccccc3)s2)C[C@@H]1O [I-144] >= 90%?
TRUE

Confirm if inhibition at 0.111 µM reported for the compound NS(=O)(=O)OC[C@H]1C[C@@H](Nc2ncncc2C(=O)c2cc(C(=O)c3ccccc3)co2)C[C@@H]1O [I-208] is 90% or above.
FALSE

* * *

biological target: recombinant human SAE enzyme (Homo sapiens (Human)); experiment: SAE HTRF enzyme assay; format: biochemical; conditions: Concentration 0.111 μM
Here, each record is paired with measured Percent Inhibition data.
Would you mind answering with just the numeric figure?

Examples with answers:
Cc1sc(C(=O)c2cncnc2NC2CC(O)C(COS(N)(=O)=O)C2)cc1[S+]([O-])c1ccccc1 (mixture of isomers) | 98
C=C(C)[C@H](O)c1cc(C(=O)c2cncnc2N[C@@H]2C[C@H](COS(N)(=O)=O)[C@@H](O)C2)sc1Cl (mixture of isomers) | 95
N[C@H](c1cccc(Cl)c1)c1cc(C(=O)c2cncnc2N[C@@H]2C[C@H](COS(N)(=O)=O)[C@@H](O)C2)sc1Cl (single isomer, unassigned) [I-15b] | 100
CN(C)C(c1cccc(Cl)c1)c1csc(C(=O)c2cncnc2NC2CC(O)C(COS(N)(=O)=O)C2)c1 (mixture of isomers) | 86
NS(=O)(=O)OC[C@H]1C[C@@H](Nc2ncncc2C(=O)c2cc([C@@H]3NCc4ccc(Cl)cc43)c(Cl)s2)C[C@@H]1O (single isomer, unassigned) [I-262b] | 98
CC(O)(c1cccc(Cl)c1)c1csc(C(=O)c2cncnc2N[C@@H]2C[C@H](COS(N)(=O)=O)[C@@H](O)C2)c1 (single isomer, unassigned) [I-5a] | 86
C[C@](O)(c1csc(C(=O)c2cncnc2N[C@@H]2C[C@H](COS(N)(=O)=O)[C@@H](O)[C@H]2O)c1)c1cccc(Br)n1 (single isomer, unassigned) [I-1a] | 96
NS(=O)(=O)OC[C@H]1C[C@@H](Nc2ncncc2C(=O)c2ccc(S(=O)(=O)c3ccccc3)o2)C[C@@H]1O | 14
NS(=O)(=O)OCC1CC(Nc2ncncc2C(=O)c2cc(C3(c4cccc(Cl)c4)CCCCO3)cs2)CC1O (mixture of isomers) | 95
Cc1sc(C(=O)c2cncnc2N[C@@H]2C[C@H](COS(N)(=O)=O)[C@@H](O)C2)cc1[C@@H]1OCCc2ccc(C(F)(F)F)cc21 (single isomer, unassigned) [I-258a] | 98

Find the recorded Percent Inhibition belonging to NS(=O)(=O)OCC1CC(Nc2ncncc2C(=O)c2cc(C(O)(CCO)c3cccc(Cl)c3)c(Cl)s2)CC1O (mixture of isomers) and report it.
98

Please give the measured Percent Inhibition for this molecule: CO[C@@H](c1cccc(Br)c1)c1csc(C(=O)c2cncnc2N[C@@H]2C[C@H](COS(N)(=O)=O)[C@@H](O)C2)c1 (single isomer, unassigned) [I-73b]
98

Requested read-out: Percent Inhibition. Entry: C[C@](N)(c1cccc(Br)c1)c1csc(C(=O)c2cncnc2N[C@@H]2C[C@H](COS(N)(=O)=O)[C@@H](O)[C@H]2O)c1 (single isomer, unassigned) [I-27b]
101

Look at this molecule and give its reported Percent Inhibition. Cc1sc(C(=O)c2cncnc2N[C@@H]2C[C@H](COS(N)(=O)=O)[C@@H](O)C2)cc1[C@H]1NCCc2ccc(Br)cc21 (single isomer, unassigned) [I-248b]
95

* * *

biological target: recombinant human SAE enzyme (Homo sapiens (Human)); test: SAE HTRF enzyme assay; format: biochemical; settings: Concentration 0.111 μM
Entries and their measured Percent Inhibition follow.
Give the figure only, with no unit attached.

Please review the entries below; each comes with its answer.
NS(=O)(=O)OC[C@H]1C[C@@H](Nc2ncncc2C(=O)c2cc(S(=O)(=O)c3ccccc3)cs2)C[C@@H]1O | 62
NS(=O)(=O)OC[C@H]1C[C@@H](Nc2ncncc2C(=O)c2cc([C@@H]3OCCc4ccccc43)cs2)C[C@@H]1O (single isomer, unassigned) [I-254b] | 99

Recorded Percent Inhibition for NS(=O)(=O)OC[C@H]1C[C@@H](Nc2ncncc2C(=O)c2cc([C@@H](O)c3cccc(Cl)c3)co2)C[C@@H]1O.NS(=O)(=O)OC[C@H]1C[C@@H](Nc2ncncc2C(=O)c2cc([C@H](O)c3cccc(Cl)c3)co2)C[C@@H]1O (mixture of isomers) , please?
98

For CC(C)[C@@H](O)c1cc(C(=O)c2cncnc2N[C@@H]2C[C@H](COS(N)(=O)=O)[C@@H](O)C2)sc1Cl (mixture of isomers) , what is its reported Percent Inhibition?
68

Percent Inhibition lookup needed for C[C@](N)(c1cccc(Cl)c1)c1csc(C(=O)c2cncnc2N[C@@H]2C[C@H](COS(N)(=O)=O)[C@@H](O)C2)c1 (single isomer, unassigned) [I-12b] , thanks.
100

For NS(=O)(=O)OC[C@H]1C[C@@H](Nc2ncncc2C(=O)c2cc([C@@H]3OCCc4ccc(Br)cc43)cs2)C[C@@H]1O (single isomer, unassigned) [I-268b] , what is its reported Percent Inhibition?
102

Can you look up the measured Percent Inhibition of Cc1sc(C(=O)c2cncnc2N[C@@H]2C[C@H](COS(N)(=O)=O)[C@@H](O)C2)cc1[C@@H]1OCCc2sccc21 (mixture of isomers) for me?
97

Percent Inhibition lookup needed for NS(=O)(=O)OC[C@H]1C[C@@H](Nc2ncncc2C(=O)c2cc([C@@H]3NCCc4ccc(Cl)nc43)c(Cl)s2)C[C@@H]1O (single isomer, unassigned) [I-253a] , thanks.
99

Reference for the values: patent US10780090B2
